# tested.system: full-length elephant shark MR (Callorhinchus milii)
# Sequence (A0A4W3I5J5 1-956): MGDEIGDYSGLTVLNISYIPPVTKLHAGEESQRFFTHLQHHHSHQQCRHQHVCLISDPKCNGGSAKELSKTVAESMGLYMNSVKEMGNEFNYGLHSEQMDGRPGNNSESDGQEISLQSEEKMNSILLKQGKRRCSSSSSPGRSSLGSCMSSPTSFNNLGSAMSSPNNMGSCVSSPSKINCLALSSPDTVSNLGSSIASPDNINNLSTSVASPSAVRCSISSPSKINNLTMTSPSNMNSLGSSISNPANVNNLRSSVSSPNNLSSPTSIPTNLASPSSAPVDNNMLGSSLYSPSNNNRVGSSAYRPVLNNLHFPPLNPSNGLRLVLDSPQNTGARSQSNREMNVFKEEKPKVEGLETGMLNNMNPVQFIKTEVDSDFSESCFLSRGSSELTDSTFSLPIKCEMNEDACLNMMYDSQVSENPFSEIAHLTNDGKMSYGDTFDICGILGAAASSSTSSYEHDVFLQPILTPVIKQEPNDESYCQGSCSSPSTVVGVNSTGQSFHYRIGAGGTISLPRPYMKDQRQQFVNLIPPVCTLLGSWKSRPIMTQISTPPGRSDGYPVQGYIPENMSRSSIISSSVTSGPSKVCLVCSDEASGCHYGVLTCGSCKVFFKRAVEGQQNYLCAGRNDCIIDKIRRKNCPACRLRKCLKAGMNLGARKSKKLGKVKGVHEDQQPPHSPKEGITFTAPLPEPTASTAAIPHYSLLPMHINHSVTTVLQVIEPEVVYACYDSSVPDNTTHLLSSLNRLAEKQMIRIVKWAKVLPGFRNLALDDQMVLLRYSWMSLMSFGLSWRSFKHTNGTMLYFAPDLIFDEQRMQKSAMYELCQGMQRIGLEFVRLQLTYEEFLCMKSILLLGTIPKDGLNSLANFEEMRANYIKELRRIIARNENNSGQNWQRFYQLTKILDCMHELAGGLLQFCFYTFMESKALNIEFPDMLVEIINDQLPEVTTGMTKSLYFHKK
# test.name: cell-based
# Parameters: species or system HEK293
pEC50: −log10 of the molar value.
quantity.kind: pEC50

(1) C[C@]12CCC(=O)C=C1CC[C@@H]1[C@@H]2[C@@H](O)C[C@]2(C=O)[C@@H](C(=O)CO)CC[C@@H]12
(2) C[C@]12CCC(=O)C=C1CC[C@@H]1[C@@H]2[C@@H](O)C[C@@]2(C)[C@H]1CC[C@]2(O)C(=O)CO
(3) C[C@]12C[C@H](O)[C@H]3[C@@H](CCC4=CC(=O)CC[C@@]43C)[C@@H]1CC[C@@H]2C(=O)CO
(4) C[C@]12CCC(=O)C=C1CC[C@@H]1[C@@H]2CC[C@@]2(C)[C@H]1CC[C@]2(O)C(=O)CO
Provide the items ranked by increasing pEC50. Your reply should list the labels following the order given in the request.
2, 3, 4, 1
